Test: in vivo
Details: rat, iv, 1 mg/kg
readout.label: half-life
Enter the number, and then the unit.

State, in one line, measured half-life of CS(=O)(=O)CCCn1c(CN2C(=O)/C(=N/OCCF)c3cccnc32)nc2ccccc21 12 min

----------
System: Respiratory syncytial virus
Experiment: Antiviral activity against RSV assessed as inhibition of viral replication by cell based assay
Type: functional, organism-based
Conditions: human respiratory syncytial virus
readout.label: EC50
Enter the number, and then the unit.

State, in one line, measured EC50 of CC(C)CCn1c(CN2C(=O)/C(=N/OCc3ccc(C(=O)O)cc3)c3ccccc32)nc2ccccc21 16 nM

State, in one line, measured EC50 of CC(=O)OCCCCn1c(CN2C(=O)/C(=N/O)c3cccnc32)nc2ccccc21 49.7 nM

State, in one line, measured EC50 of COCCCn1c(CN2C(=O)/C(=N/OCCF)c3ccccc32)nc2ccccc21 71 nM

State, in one line, measured EC50 of CC(C)(C)O/N=C1/C(=O)N(Cc2nc3ccccc3n2CCCCO)c2ccccc21 1130 nM

# ---- query compound ----
State, in one line, measured EC50 of CO/N=C1/C(=O)N(Cc2nc3ccccc3n2CCCCO)c2cnccc21 30.9 nM

Data origin: ChEMBL document CHEMBL1153463
